System: MDA-MB-435
Assay protocol: NCI tumour cell line growth inhibition, 48 h
Everything with TGI lower than 30 µM is rule not met; everything else, including exactly 30 µM, is rule met.

- Molecule: "CNC(=O)/C=C/C1=CN2C(=O)c3ccc(C)c(O)c3NC(OC)C2C1 (stereo unspecified)"
  Assigned category: "rule not met"

Query :: Item `N#CCCC1(CCC#N)S(=O)(=O)OCCOS1(=O)=O` with TGI of 30 µM or above?
Result :: rule met

Query :: Does TGI meet or surpass 30 µM for CCCCCN1C(=O)C(Cc2ccccc2)N=C(c2ccc(O)cc2)c2cc(Cl)ccc21 (stereo unspecified) ?
Result :: rule not met

====

System: HS 578T breast
Assay protocol: NCI tumour cell line growth inhibition, 48 h
Observed property: TGI

Reference set (2 entries):
- Molecule: "CNC(=O)/C=C/C1=CN2C(=O)c3ccc(C)c(O)c3NC(OC)C2C1 (stereo not drawn)"
  TGI: "< 0.0264 µM"
- Molecule: "C=C(C)[C@@H]1CC[C@]2(C(=O)O)CC[C@]3(C)[C@H](CC[C@@H]4[C@@]5(C)C/C(=C/c6ccco6)C(=O)C(C)(C)[C@@H]5CC[C@]43C)[C@@H]12"
  TGI: "> 100 µM"

Proceed to the following item.
Query :: # query: TGI of entry `CCOC(=O)/C=C(/C(=O)OCC)n1ccc(=O)n(Cc2cn(CCCCOC(C)=O)nn2)c1=O`
Result :: > 100 µM

====

System: UACC-257 melanoma
Assay protocol: NCI tumour cell line growth inhibition, 48 h
Observed property: GI50

Fill in GI50 for each of the 6 molecules listed.
1. CC(=O)OC(C(=O)[O][Ge]([CH3])([CH3])[CH3])c1ccccc1 (centres undefined)
2. CS(=O)(=O)N1CCC(Nc2ncc(C(=O)c3c(F)cccc3F)c(N)n2)CC1
3. O=C1/C(=C/c2ccc(Cl)cc2)CN(Cc2cn(CCCNc3ccnc4cc(Cl)ccc34)nn2)C/C1=C\c1ccc(Cl)cc1
4. Cn1c2c(c3ccccc31)CCN1C[C@@H]3CCCC[C@H]3C[C@@H]21
5. Cc1cc(O)ccc1C1(c2ccc(O)cc2C)OC(=O)c2ccccc21
6. Clc1nc(Cl)c2ncn(-c3ccccc3)c2n1

Result ::
> 100 µM
13.2 µM
1.72 µM
8.14 µM
23.8 µM
6.86 µM

====

System: HOP-92 NSCLC
Assay protocol: NCI tumour cell line growth inhibition, 48 h
Observed property: TGI

Answered examples (3):
- Compound: "Cc1cc(C)c(NS(=O)c2ccc(Cl)cc2)c(C)c1 (centres undefined)"
  Observed property: "TGI"
  Test value: "> 100 µM"
- Compound: "NS(=O)(=O)c1ccc(N=Nc2c(O)[nH]c3ccc(C(=O)NCCCn4ccnc4)cc23)cc1"
  Observed property: "TGI"
  Test value: "> 25 µM"
- Compound: "CC(=O)Oc1ccc(C2OC(c3ccc4ccccc4c3OC(C)=O)=NN2C(C)=O)c(OC(C)=O)c1 (centres undefined)"
  Observed property: "TGI"
  Test value: "> 29.5 µM"

Query :: Recorded TGI of `CC(C)[C@@]12C[C@@H](OC(=O)COC(=O)c3ccccc3)[C@@](C)(O1)[C@@H]1CC[C@@H](C)[C@H]1[C@@H]2OC(=O)/C=C/c1ccccc1` , please.
Result :: > 100 µM

====

Test system: M14 melanoma
Assay protocol: NCI tumour cell line growth inhibition, 48 h
Kindly state TGI for each of the entries shown.

- Molecule: "CN1N=C(c2ccncc2)OC1c1cccc(F)c1 (stereo not drawn)"
  TGI: "> 100 µM"
- Molecule: "CSC1=CC(=O)c2ccccc2C1=O"
  TGI: "3.88 µM"
- Molecule: "CCOC(=O)/C(C1=NCCN1C)=C(\\O)c1ccccc1"
  TGI: "> 100 µM"

Could you tell me TGI for each of these molecules? They are listed below.
1. Nc1[nH]c(=O)nc2c1cnn2COCCO
2. CCC1=CC(OCc2ccccc2)C(CCN(Cc2ccccc2)C(=O)OCc2ccccc2)C1 (stereo not drawn)
3. CCN1C(=O)/C(=c2\sc3n(c2=O)C2C(NN=3)N(CC)C(=O)N2CC)c2ccccc21 (stereo not drawn)
4. COC(=O)C1c2cc3c(c(O)c2CCC1(C)O)C(=O)c1c(O)cc2c(c1C3=O)OC1OC2(C)C(O)C(N(C)C)C1O (stereo not drawn)
5. Cc1ccccc1N(CCC#N)C1=NN(C(=O)CC(=O)Nc2ccc(Cl)cc2)C(c2ccccc2)C1 (stereo not drawn)
6. COc1cc2ccnc(C#N)c2cc1OCc1ccccc1

Result ::
> 100 µM
27.8 µM
21.7 µM
5.33 µM
> 100 µM
> 100 µM

Answer for every listed entry: what is its TGI? The entries follow.
1. Cc1ccc2ncnc(N(C)C3CCCCC3)c2c1
2. Cc1cc(C)c(NS(=O)c2ccc(Cl)cc2)c(C)c1 (stereo not drawn)
3. OC1C2CCCCN2C[C@@H](O)[C@H]1O (stereo partly drawn)
4. O=S(=O)(NCCNc1nccc(-c2c(-c3ccc(F)cc3)nc3sccn23)n1)c1ccc(O)cc1
5. CO/N=C(/C)COc1ccc2c(c1)oc(=O)c1cc(OC)ccc12
6. O=C(O)CN1C(=O)OC(c2ccccc2)C1=O (stereo not drawn)
7. CN(C)CC1(Cc2ccccc2)CC/C(=C\c2ccccc2)C1=O (stereo not drawn)
8. CNC(=O)O/N=C1\N(C)CN(c2ccccc2)C12CCN(CCCC(=O)c1ccc(F)cc1)CC2

Result ::
63.4 µM
> 100 µM
> 100 µM
18.1 µM
> 100 µM
> 100 µM
> 100 µM
32.9 µM

====

Tested on: DU-145 prostate
Assay protocol: NCI tumour cell line growth inhibition, 48 h
I'd be grateful if you could share measured TGI for these entries.

- Compound: "CC[C@]12C=CCN3CC[C@@]4(c5ccc(OC)cc5N(C)[C@H]4[C@@](O)(C(=O)OC)[C@@H]1OC(=O)CCC(=O)O[C@H]1CC[C@H]4[C@@H]5CCC6=CC(=O)CC[C@@H]6[C@H]5CC[C@]14C)[C@@H]32"
  TGI: "> 50 µM"
- Compound: "OC1C2CCCCN2C[C@@H](O)[C@H]1O (stereo partly drawn)"
  TGI: "> 100 µM"

Query :: Can you share its TGI? I mean this compound: `Cc1nc2ccc(-n3ncc(C(=O)c4cc5ccccc5[nH]4)c3N)cc2[nH]1`
Result :: > 100 µM

====

Could you please report measured GI50 for the items listed next?
Test system: SK-MEL-5 melanoma
Assay protocol: NCI tumour cell line growth inhibition, 48 h

Some solved cases for reference:
- Compound: "COc1ccccc1CNCCCN1C(=O)c2ccc3c4c(ccc(c24)C1=O)C(=O)N(CCCNCCCCNCCCN)C3=O"
  GI50: "0.159 µM"
- Compound: "CCc1ccc(Oc2c(-c3ccc(OCCc4cccc(C(F)(F)F)c4)cc3O)n[nH]c2C(F)(F)F)cc1"
  GI50: "5.13 µM"
- Compound: "N#CC1=C(N)N=C(N2CCOCC2)C(C#N)C12Nc1ccccc1S2 (centres undefined)"
  GI50: "12.5 µM"
- Compound: "CCOC(=O)c1c(-c2ccccc2)n2c(=O)cc(C)c3c(O)c(O)cc1c32"
  GI50: "4.44 µM"
- Compound: "COc1ccc(N=Nc2ccc(O)c(=O)cc2)cc1"
  GI50: "3.34 µM"
- Compound: "COc1ccc(-c2cc(=O)c3c(OC)c4ccoc4c(/C=C/C=O)c3o2)cc1"
  GI50: "1.69 µM"

Respectfully, I request GI50 for each entry included below.
1. CC[O-].CC[O-].O=C1C=C([O-])C(=O)c2ccccc21.O=C1C=C([O-])C(=O)c2ccccc21.[Ti+4]
2. c1cc[n+](Cc2c3ccccc3cc3c2ccc2ccccc23)cc1
3. Cc1cc(S(=O)(=O)Nc2nc3ccccc3c(=O)n2Cc2ccco2)c(S)cc1Cl

Result ::
1: 3.07 µM; 2: 1.77 µM; 3: 22.8 µM

====

Task for the reader: assign each of the following molecules its reported TGI.
Tested on: CCRF-CEM leukemia
Assay protocol: NCI tumour cell line growth inhibition, 48 h

Below, 8 molecules whose answers are already recorded.
- Molecule: "Nc1c(F)c(F)c2c(c1F)N(CCCCCl)c1ccccc1S2"
  TGI: "> 100 µM"
- Molecule: "CC1=C2CC[C@@]3(C)C(=CCC3O)C2(C)CCC1=O (some centres not stated)"
  TGI: "> 100 µM"
- Molecule: "CC(C)n1cc(-c2ccc3c(c2)N(C)CC3)c2c(NS(=O)(=O)c3ccn(C)n3)ccnc21"
  TGI: "> 100 µM"
- Molecule: "CC(=O)NC1C(OCc2ccccc2)OC(CO)C(O)C1OCC(=O)NC(C(=O)NC(CCC(=O)NCCCCCC(=O)Nc1ccc2c(c1)CN1C(=O)c3ccccc3C1=N2)C(N)=O)C(C)C (configuration not stated)"
  TGI: "> 100 µM"
- Molecule: "c1ccc(-c2cc3nc4ccccc4nc3cc(-c3ccccc3)[nH][nH]2)cc1"
  TGI: "> 100 µM"
- Molecule: "O=C(c1ccccc1)c1ccc(N2C(=O)/C(=C/c3ccccc3S)N=C2c2ccccc2)c(N2C(=O)/C(=C/c3ccccc3S)N=C2c2ccccc2)c1"
  TGI: "> 100 µM"
- Molecule: "CN(C)CCC(=O)[C@@]1(O)CC[C@H]2[C@@H]3CC=C4C[C@@H](O)CC[C@]4(C)[C@H]3CC[C@@]21C"
  TGI: "> 55.7 µM"
- Molecule: "NS(=O)(=O)c1ccc(N=Nc2c(O)[nH]c3ccc(C(=O)NCCCn4ccnc4)cc23)cc1"
  TGI: "> 25 µM"

Hello, I would appreciate it if you could give TGI for each entry below.
1. O=C1CSC(c2ccccc2)N1c1ccc(-c2ccc(-n3c(-c4ccccc4)nc4ccccc4c3=O)cc2)cc1 (configuration not stated)
2. O=C1CCC(=O)c2ccccc2N1
3. COc1ccc(C[C@H]2COC(=O)[C@@H]2Cc2ccc(Br)cc2)cc1OC
4. Nc1nc2ccc(CNc3ccc(C(=O)NC(CC(=O)O)C(=O)O)cc3)cc2c(=O)[nH]1 (configuration not stated)

Result ::
> 100 µM
> 100 µM
> 100 µM
> 100 µM
